- Test system: SK-MEL-2 melanoma
- test.method.notes: NCI tumour cell line growth inhibition, 48 h
TGI: recorded values

Use these answered entries as a reference point.
INSERT INTO assay_data (molecule, quantity_name, result) VALUES
  ('O=C1CC2CCC(C1)S2=O (stereo unspecified)', 'TGI', '> 100 µM'),
  ('COc1ccc(Nc2nc(N)c(C(=O)c3cccs3)s2)cc1', 'TGI', '> 51.4 µM'),
  ('CC(C)(C)OC(=O)NCC(=O)N1CCN(C(=O)CNC(=O)OC(C)(C)C)CC1', 'TGI', '> 100 µM'),
  ('Cc1ccc(NC(=O)CSC(N)=O)cc1C', 'TGI', '> 100 µM'),
  ('CCC[C@@H]1C(=O)N=C(N)N1C(=O)OCc1ccccc1', 'TGI', '> 100 µM'),
  ('Cc1ccc([N+](=O)[O-])c2c(NCC(O)CO)ccnc12 (stereo unspecified)', 'TGI', '53.9 µM'),
  ('C=CC(COC(c1ccccc1)(c1ccccc1)c1ccccc1)N(CC)CC (stereo unspecified)', 'TGI', '13.9 µM'),
  ('Cc1c([N+](=O)[O-])oc2ccc3ccccc3c12', 'TGI', '> 100 µM');

Field TGI (SK-MEL-2 melanoma), entry COc1cc(Br)c(CC2C3=C(CCN2C(=O)C2CCC2)CC(=O)CC3)cc1O (stereo unspecified) : > 100 µM

Field TGI (SK-MEL-2 melanoma), entry CC(C)(C)[Si](C)(C)OCC1OC(n2cnc3c(=O)[nH]c(N)nc32)C(O[Si](C)(C)C(C)(C)C)C1O[Si](C)(C)C(C)(C)C (stereo unspecified) : 1.01 µM

Field TGI (SK-MEL-2 melanoma), entry COC(=O)C(C)NC(=O)c1ccccc1I(OS(=O)(=O)C(F)(F)F)c1ccccc1 (stereo unspecified) : > 100 µM
